testedOn: human TLR7 (Homo sapiens, UniProt Q9NYK1)
Sequence (Q9NYK1 27-1049): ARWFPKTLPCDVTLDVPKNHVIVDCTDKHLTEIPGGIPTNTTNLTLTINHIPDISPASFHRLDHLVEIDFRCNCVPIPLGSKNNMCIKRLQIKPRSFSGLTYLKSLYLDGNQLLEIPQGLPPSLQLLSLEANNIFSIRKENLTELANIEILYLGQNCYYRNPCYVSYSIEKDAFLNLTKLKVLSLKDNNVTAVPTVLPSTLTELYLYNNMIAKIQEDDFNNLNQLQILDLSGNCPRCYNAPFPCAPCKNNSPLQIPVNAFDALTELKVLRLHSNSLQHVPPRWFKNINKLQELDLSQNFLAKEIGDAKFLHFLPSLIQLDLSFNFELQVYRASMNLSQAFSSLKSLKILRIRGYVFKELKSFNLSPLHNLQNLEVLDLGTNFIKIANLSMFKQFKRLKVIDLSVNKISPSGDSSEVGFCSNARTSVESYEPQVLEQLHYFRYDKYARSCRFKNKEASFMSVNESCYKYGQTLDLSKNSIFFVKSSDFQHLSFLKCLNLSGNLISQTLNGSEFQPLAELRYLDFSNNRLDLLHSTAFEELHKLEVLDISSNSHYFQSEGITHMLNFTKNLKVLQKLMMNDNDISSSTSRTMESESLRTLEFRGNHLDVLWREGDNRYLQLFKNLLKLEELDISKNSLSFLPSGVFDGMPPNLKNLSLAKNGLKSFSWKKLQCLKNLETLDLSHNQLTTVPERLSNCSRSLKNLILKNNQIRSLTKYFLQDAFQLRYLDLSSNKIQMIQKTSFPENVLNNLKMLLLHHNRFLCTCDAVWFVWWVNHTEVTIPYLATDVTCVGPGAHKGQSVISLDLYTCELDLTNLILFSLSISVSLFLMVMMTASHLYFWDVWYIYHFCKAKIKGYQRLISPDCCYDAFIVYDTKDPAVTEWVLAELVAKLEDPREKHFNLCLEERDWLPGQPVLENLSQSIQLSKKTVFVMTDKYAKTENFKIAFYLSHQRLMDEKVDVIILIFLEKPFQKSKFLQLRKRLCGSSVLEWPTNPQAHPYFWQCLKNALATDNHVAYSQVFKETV
assayInfo: HEK Reporter Assay, HEK293 NFKB reporter cells expressing human TLR7
statedConditions: read-out: HEK293 hTLR7 EC50
pEC50: −log10 of the molar value.
Decision: pEC50 compared against 6; not below it gives Met, below it gives Not met.

Reference set, count: 3
> print(dat)
                                   compound      cat
1  CCCN(OCCNC(=O)N(C)C)C(=O)C1=Cc2ccc(-c3cnc(CN)nc3)cc2N=C(N)C1 [HxBz-20]  Not met
2  CCCN(OC(C)C)C(=O)C1=Cc2ccc(-c3cnc(CN)nc3)cc2N=C(N)C1 [HxBz-30]      Met
3  CCCN(OCC)C(=O)C1=Cc2ccc(-c3cnn(S(=O)(=O)N4CC(CN)C4)c3)cc2N=C(N)C1 [HxBz-9]  Not met

Task: Does the reported pEC50 for CCCN(CCCNC(=O)OC1CCC1)C(=O)C1=Cc2ccc(-c3cncc(CN)c3)cc2N=C(N)C1 [HxBz-40] fall at or above the 6 mark?
Result: Met

Task: // repeat for CCCN(OCC)C(=O)C1=Cc2ccc(-c3cncc(CN)c3)cc2N=C(N)C1 [HxBz-39] and report
Result: Not met

Task: // repeat for CCCN(OCC)C(=O)C1=Cc2ccc(-c3cncc(S(=O)(=O)N4CC(CN)C4)c3)cc2N=C(N)C1 [HxBz-7] and report
Result: Not met

Task: // repeat for CCCN(OCC)C(=O)C1=Cc2ccc(N3CCNCC3)cc2N=C(N)C1 [HxBz-18] and report
Result: Not met

Task: // repeat for CCCN(OCCNC(=O)OC1CCC1)C(=O)C1=Cc2ccc(-c3cnc(CN)nc3)cc2N=C(N)C1 [HxBz-15] and report
Result: Met

Task: // repeat for CCCN(CCCNC(=O)OC(C)C)C(=O)C1=Cc2ccc(-c3cncc(S(=O)(=O)N4CC(CN)C4)c3)cc2N=C(N)C1 [HxBz-33] and report
Result: Not met

Task: // repeat for CCCN(OCC)C(=O)C1=Cc2ccc(-c3cnc(C(=O)OC)nc3)cc2N=C(N)C1 [HxBz-11] and report
Result: Not met

* * *

testedOn: human TLR7 (Homo sapiens, UniProt Q9NYK1)
assayInfo: HEK Reporter Assay, HEK293 NFKB reporter cells expressing human TLR7
statedConditions: read-out: HEK293 hTLR7 EC50
attributeMeasured: log10(EC50) (log10 of the value in nM)
Transform log10 | Measure EC50 | Unit nM

> print(dat)
                                   molecule                                  testedon  observedresult
1  CCCN(OCCNC(=O)OC1CCC1)C(=O)C1=Cc2ccc(-c3ccc(CN)nc3)cc2N=C(N)C1 [HxBz-47]  human TLR7 (Homo sapiens, UniProt Q9NYK1)            1.54
2  CCCN(OCCNC(=O)OC(C)C)C(=O)C1=Cc2ccc(-c3cnc(CN)nc3)cc2N=C(N)C1 [HxBz-27]  human TLR7 (Homo sapiens, UniProt Q9NYK1)            1.41

Below are some molecules; for each one, tell me its log10(EC50).
1. CCCN(OCC)C(=O)C1=Cc2ccc(-c3ccc(C(=O)OC)nn3)cc2N=C(N)C1 [HxBz-6]
2. CCCN(OCCNC(=O)N1CCOCC1)C(=O)C1=Cc2ccc(-c3cnc(CN)nc3)cc2N=C(N)C1 [HxBz-23]

Result:
1: 3.42; 2: 3.84

Just for reference, patent US20220195066A1 is where these values come from.
